Test: NCI Yeast Anticancer Drug Screen. Data for the mec2-1 strain (AID 157)
Settings: S. cerevisiae mec2-1 strain, at 50.0 µM
This is part of a sample that, as a whole, favours compounds with a hit. Of some 79,000 tested, about 15% had one in any assay. The source made the active and inactive calls. No stated cut-off is given here; in the data, active means growth inhibition above about 70%; inactive means the rest.
Field 'call' accepts true (1) = active, false (0) = inactive

| compound | group-label |
| --- | --- |
| O/N=C1\CC2CC1C1CC3(CC3)C21 (stereo not drawn) | false (0) |

For `O=C(Nc1cccc(Cl)c1)Oc1ccccc1` , which call appears in the assay record?
false (0)

For `CCOC(=O)c1oc2c(OC)ccc3c2c1CCC3` , which call appears in the assay record?
false (0)

For CC(=O)NC(Cc1ccccc1)/C(C)=N\O (stereo not drawn) , which call appears in the assay record?
false (0)

For CN(N)c1nc2c(N)ncnc2n1C1OC(CO)C(O)C1O (stereo not drawn) , which call appears in the assay record?
false (0)

For `CC(=O)Nc1cccc2ccc([N+](=O)[O-])cc12` , which call appears in the assay record?
false (0)

For `CC(=O)Nc1c(Cl)c(Cl)c2c(c1Cl)Cc1cc([N+](=O)[O-])ccc1-2` , which call appears in the assay record?
false (0)

For `CN(C)Cc1cc(C(=O)/C=C/c2ccccc2Cl)cc(CN(C)C)c1O` , which call appears in the assay record?
false (0)
